target of assay: human V2 receptor (Homo sapiens)
Construct: expressed in transfected cells; host or cells: CHO K1 (ATCC) expressing firefly luciferase under a CRE-responsive promoter
Sequence (P30518 whole entry): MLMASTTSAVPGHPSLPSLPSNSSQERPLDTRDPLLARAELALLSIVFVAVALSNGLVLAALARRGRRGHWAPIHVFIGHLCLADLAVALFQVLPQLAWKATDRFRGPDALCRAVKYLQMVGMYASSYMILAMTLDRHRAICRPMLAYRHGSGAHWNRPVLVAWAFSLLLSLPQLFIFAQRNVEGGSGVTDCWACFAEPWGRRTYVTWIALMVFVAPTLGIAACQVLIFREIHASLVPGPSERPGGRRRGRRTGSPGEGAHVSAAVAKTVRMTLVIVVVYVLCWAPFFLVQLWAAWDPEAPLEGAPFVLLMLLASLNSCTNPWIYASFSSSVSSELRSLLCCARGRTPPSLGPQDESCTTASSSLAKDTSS
protocol text: Cellular in vitro assay for determining vasopressin receptor activity, V2 receptor cell line (CHO, CRE-luciferase)
Assay type: cell-based
condition info: CHO cell line transfected with human V2 receptor; [Arg8]-vasopressin at EC50 concentration, 3 hours; read-out: IC50 hV2
parameter: IC50 (nM)

Here are 4 compounds together with their reported answers.
>>> print(df.to_string())
                    structure_smiles_string  experimental_result
0  CC[C@H](C)C(=O)Nc1ncccc1-n1cnc(Cn2nc(-c3ccc(Cl)cc3)n(C[C@H](O)C(F)(F)F)c2=O)n1                  270
1  O=C(Nc1ncccc1-n1cnc(Cn2nc(-c3ccc(Cl)cc3)n(C[C@H](O)C(F)(F)F)c2=O)n1)c1ccc(F)cc1                 1500
2  O=c1n(Cc2ncn(-c3cccnc3NCCC(F)(F)F)n2)nc(-c2ccc(Cl)cc2)n1C[C@H](O)C(F)(F)F                  320
3  NC(=O)[C@H]1CC(F)(F)CN1c1ccncc1-n1cnc(Cn2nc(-c3ccc(Cl)cc3)n(C[C@H](O)C(F)(F)F)c2=O)n1                 4670

A = O=C(Nc1cccnc1-n1cnc(Cn2nc(-c3ccc(Cl)cc3)n(C[C@H](O)C(F)(F)F)c2=O)n1)C1CC(F)(F)C1
B = Cc1cncc(NC(=O)c2ccccc2-n2cnc(Cn3nc(-c4ccc(Cl)cc4)n(C[C@H](O)C(F)(F)F)c3=O)n2)c1
Q. Would you let me know which has the greater IC50 value, A or B ? Give the label under which the chosen entry appears.
A. A
(A: 557 nM, B: 215 nM)

Provenance of the data: patent US11173151B2
